The measured values listed here are drawn from paper PMC9109178.

Biological target: A. baumannii MsbA (Acinetobacter baumannii, UniProt A0A0B9X4I2)
Sequence (A0A0B9X4I2 1-575): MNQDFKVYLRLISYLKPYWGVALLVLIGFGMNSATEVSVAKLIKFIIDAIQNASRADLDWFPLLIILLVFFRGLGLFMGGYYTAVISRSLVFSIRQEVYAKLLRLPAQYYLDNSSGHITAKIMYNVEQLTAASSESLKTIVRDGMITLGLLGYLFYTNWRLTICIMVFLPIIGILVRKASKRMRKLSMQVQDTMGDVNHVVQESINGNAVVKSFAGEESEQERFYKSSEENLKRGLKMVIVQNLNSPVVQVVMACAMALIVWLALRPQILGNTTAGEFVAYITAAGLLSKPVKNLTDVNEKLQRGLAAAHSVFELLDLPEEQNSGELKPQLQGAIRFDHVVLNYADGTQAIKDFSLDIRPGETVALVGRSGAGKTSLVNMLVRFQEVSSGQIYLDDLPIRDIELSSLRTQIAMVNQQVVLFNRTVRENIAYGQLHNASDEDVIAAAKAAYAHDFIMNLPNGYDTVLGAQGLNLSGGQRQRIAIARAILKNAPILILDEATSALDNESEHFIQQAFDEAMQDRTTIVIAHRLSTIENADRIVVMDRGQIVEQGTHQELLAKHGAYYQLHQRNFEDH
Assay: ATPase activity assay
Conditions: stimulation of ATPase activity; allosteric, central substrate (LPS) binding site
pEC50: −log10 of the molar value.
measuredEndpoint: pEC50

Asked: Consider the compound O=C(Nc1sc2c(c1C(=O)O)CCCC2)c1ccc(Cl)cc1 [TBT1] tested on A. baumannii MsbA (Acinetobacter baumannii, UniProt A0A0B9X4I2); state its pEC50.
Given back: ~4.89
